# ASPARTATE AMINOTRANSFERASE values compiled below
Organism: Rattus norvegicus
Test: DrugMatrix - Regimen: Daily Repeat
Assay type: toxicity, organism-based, Sprague-Dawley
Parameters: regimen Daily Repeat, gender Male, age 6-8 weeks
Details: in vivo, po, 0 mg/kg, 72 h, tissue Plasma, route oral GAVAGE, dose level Control, time 3 day, […]
The reply should be a number in u/L, with the unit left off.

Solved cases (5 shown):
1) CCCCCCCCc1ccc(O)cc1 :: 88
2) C[C@H]1O[C@@H](O[C@H]2[C@@H](O)C[C@H](O[C@H]3[C@@H](O)C[C@H](O[C@H]4CC[C@@]5(C)[C@H](CC[C@@H]6[C@@H]5CC[C@]5(C)[C@@H](C7=CC(=O)OC7)CC[C@]65O)C4)O[C@@H]3C)O[C@@H]2C)C[C@H](O)[C@@H]1O :: 87.5
3) S=C=Nc1cccc2ccccc12 [1-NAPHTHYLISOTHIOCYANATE] :: 90.5
4) COCCOC(=O)C1=C(C)NC(C)=C(C(=O)OC(C)C)C1c1cccc([N+](=O)[O-])c1 (stereo unspecified) :: 89.83
5) CC(=O)Nc1ccc(O)cc1 :: 90.83

Here is the next item to consider.
Lookup: If you can, please state the reported ASPARTATE AMINOTRANSFERASE value of CCOC(=O)C1=C(C)NC(C)=C(C(=O)OC)C1c1cccc([N+](=O)[O-])c1 (stereo unspecified) .
Found: 89.83

###

# ABSOLUTE MONOCYTE values compiled below
Organism: Rattus norvegicus
Experiment: DrugMatrix - Regimen: Daily Repeat
Type: toxicity, organism-based, Sprague-Dawley
Parameters: regimen Daily Repeat, gender Male, age 6-8 weeks
Settings: in vivo, po, 0 mg/kg, 72 h, tissue Blood, route oral GAVAGE, dose level Control, time 3 day, vehicle .5 % CMC

Lookup: If you can, please state the reported ABSOLUTE MONOCYTE value of CC(=O)CC(c1ccccc1)c1c(O)c2ccccc2oc1=O (centres undefined) .
Found: 420.83 CELLS/uL

Lookup: If you can, please state the reported ABSOLUTE MONOCYTE value of "CNC(=C[N+](=O)[O-])NCCSCc1ccc(CN(C)C)o1" .
Found: 160.33 CELLS/uL

Lookup: If you can, please state the reported ABSOLUTE MONOCYTE value of C[C@](O)(CS(=O)(=O)c1ccc(F)cc1)C(=O)Nc1ccc(C#N)c(C(F)(F)F)c1 [(R)-BICALUTAMIDE] .
Found: 180.83 CELLS/uL

Lookup: If you can, please state the reported ABSOLUTE MONOCYTE value of "C[C@]1(Cn2ccnn2)[C@H](C(=O)O)N2C(=O)C[C@H]2S1(=O)=O" .
Found: 0 CELLS/uL

###

# SODIUM values compiled below
Organism: Rattus norvegicus
Experiment: DrugMatrix - Regimen: Daily Repeat
Type: toxicity, organism-based, Sprague-Dawley
Parameters: regimen Daily Repeat, gender Male, age 6-8 weeks
Details: in vivo, po, 0 mg/kg, 120 h, tissue Plasma, route oral GAVAGE, dose level Control, time 5 day, […]
The reply should be a number in MEQ/L, with the unit left off.

Lookup: If you can, please state the reported SODIUM value of "CC(=O)Nc1cccc(O)c1" .
Found: 146.07

Lookup: If you can, please state the reported SODIUM value of COc1ccc2[nH]c([S+]([O-])Cc3ncc(C)c(OC)c3C)nc2c1 (stereo not given) .
Found: 126.88

Lookup: If you can, please state the reported SODIUM value of "Clc1ccc(Cl)cc1" .
Found: 145.67

Lookup: If you can, please state the reported SODIUM value of COCCOC(=O)C1=C(C)NC(C)=C(C(=O)OC(C)C)C1c1cccc([N+](=O)[O-])c1 (stereo not given) .
Found: 143.93

Lookup: If you can, please state the reported SODIUM value of CCOC(=O)C1=C(C)NC(C)=C(C(=O)OC)C1c1cccc([N+](=O)[O-])c1 (stereo not given) .
Found: 143.93

Lookup: If you can, please state the reported SODIUM value of "C[C@H]1O[C@@H](O[C@H]2[C@@H](O)C[C@H](O[C@H]3[C@@H](O)C[C@H](O[C@H]4CC[C@@]5(C)[C@H](CC[C@@H]6[C@@H]5CC[C@]5(C)[C@@H](C7=CC(=O)OC7)CC[C@]65O)C4)O[C@@H]3C)O[C@@H]2C)C[C@H](O)[C@@H]1O" .
Found: 143.87

Lookup: If you can, please state the reported SODIUM value of "CC/C(=C(/CC)c1ccc(O)cc1)c1ccc(O)cc1" .
Found: 141.62

Lookup: If you can, please state the reported SODIUM value of "C[C@]12CC[C@@H]3c4ccc(O)cc4CC[C@H]3[C@@H]1CC[C@@H]2O" .
Found: 142.48

Lookup: If you can, please state the reported SODIUM value of "CCCCCCCCc1ccc(O)cc1" .
Found: 142.2

Lookup: If you can, please state the reported SODIUM value of Cc1cccc(Nc2ccncc2S(=O)(=O)NC(=O)NC(C)C)c1 [TORSEMIDE] .
Found: 142.48
